Reference for the values: patent US20240376214A1

molecular target: human c-Met (HGFR), full length, on the cell surface (human, UniProt P08581 25-1390); assay: cell-based or functional assay
Sequence (P08581 25-1390 limits assumed): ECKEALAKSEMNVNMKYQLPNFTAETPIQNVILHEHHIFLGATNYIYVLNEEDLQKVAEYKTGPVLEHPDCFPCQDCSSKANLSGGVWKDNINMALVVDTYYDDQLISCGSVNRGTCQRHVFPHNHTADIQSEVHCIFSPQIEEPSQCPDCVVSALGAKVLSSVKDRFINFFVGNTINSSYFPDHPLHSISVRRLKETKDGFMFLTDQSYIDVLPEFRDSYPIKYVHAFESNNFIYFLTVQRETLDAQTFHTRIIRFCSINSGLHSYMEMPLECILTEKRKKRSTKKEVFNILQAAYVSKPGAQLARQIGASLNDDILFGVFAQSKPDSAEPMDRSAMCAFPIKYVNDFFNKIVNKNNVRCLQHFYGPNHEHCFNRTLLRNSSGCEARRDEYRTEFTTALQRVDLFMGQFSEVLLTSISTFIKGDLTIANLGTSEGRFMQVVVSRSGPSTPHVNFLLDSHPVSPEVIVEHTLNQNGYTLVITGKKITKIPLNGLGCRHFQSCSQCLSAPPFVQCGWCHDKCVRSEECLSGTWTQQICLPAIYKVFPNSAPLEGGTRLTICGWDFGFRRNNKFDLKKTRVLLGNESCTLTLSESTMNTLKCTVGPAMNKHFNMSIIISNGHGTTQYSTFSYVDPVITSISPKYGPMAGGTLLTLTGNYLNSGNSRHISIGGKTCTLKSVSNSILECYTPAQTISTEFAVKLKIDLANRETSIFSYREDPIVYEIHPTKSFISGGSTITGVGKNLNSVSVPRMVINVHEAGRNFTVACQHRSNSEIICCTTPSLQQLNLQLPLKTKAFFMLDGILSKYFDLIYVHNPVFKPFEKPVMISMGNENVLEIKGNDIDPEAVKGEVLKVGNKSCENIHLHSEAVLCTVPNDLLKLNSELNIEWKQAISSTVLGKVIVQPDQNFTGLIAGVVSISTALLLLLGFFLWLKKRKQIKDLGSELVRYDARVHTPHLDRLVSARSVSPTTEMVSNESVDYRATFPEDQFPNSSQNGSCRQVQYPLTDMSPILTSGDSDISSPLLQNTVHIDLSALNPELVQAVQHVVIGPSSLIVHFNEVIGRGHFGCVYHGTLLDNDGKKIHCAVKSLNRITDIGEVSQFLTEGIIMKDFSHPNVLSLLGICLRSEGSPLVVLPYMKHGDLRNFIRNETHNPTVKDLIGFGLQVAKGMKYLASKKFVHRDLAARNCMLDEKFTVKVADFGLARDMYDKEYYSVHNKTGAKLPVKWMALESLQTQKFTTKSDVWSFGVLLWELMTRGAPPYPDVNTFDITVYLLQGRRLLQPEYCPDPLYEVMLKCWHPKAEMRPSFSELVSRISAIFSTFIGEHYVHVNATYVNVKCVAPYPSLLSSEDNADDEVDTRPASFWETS
readout-name: Efficacy (%), in vitro cytotoxicity, NCI-H596, -HGF
Value expressed in %; do not type the unit.

Reported Efficacy (%), in vitro cytotoxicity, NCI-H596, -HGF ( ADC3e (antibody, human IgG1, kappa, V domains shown, vc-seco-DUBA linker-drug on the engineered cysteine at HC position 41 (Kabat); DAR 1.9) VH: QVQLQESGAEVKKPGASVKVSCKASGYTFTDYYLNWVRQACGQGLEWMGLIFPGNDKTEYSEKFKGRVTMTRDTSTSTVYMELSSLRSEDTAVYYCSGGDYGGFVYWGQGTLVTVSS VL: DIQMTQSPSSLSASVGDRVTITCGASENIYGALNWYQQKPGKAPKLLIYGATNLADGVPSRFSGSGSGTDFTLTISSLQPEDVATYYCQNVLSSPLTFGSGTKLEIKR ) = 11

Reported Efficacy (%), in vitro cytotoxicity, NCI-H596, -HGF ( ADC1 (antibody, human IgG1, kappa, V domains shown, vc-seco-DUBA linker-drug on the engineered cysteine at HC position 41 (Kabat); DAR 1.5) VH: EVQLQQSGPELLKPGASVKMSCKASGYIFTDYFMNWVKQSCGKSLEWIGRVNPKNGDITYNQKFRGKATLTVDKSLTTAYMQLNSLTSEDSAVYFCAYDGYYDGMDFWGQGTSVTVSS VL: ENVLTQSPAIMSASPGEKVTMTCRANSSVSSNFLHWYQQKSGASPKLWISSTSNLAFGVPPRFSGSGSGTSYSLTISSVEAEDAATYYCHQYSGHPFTFGSGTKLEIKR ) = 16

Reported Efficacy (%), in vitro cytotoxicity, NCI-H596, -HGF ( ADC3c (antibody, human IgG1, kappa, V domains shown, vc-seco-DUBA linker-drug on the engineered cysteine at HC position 41 (Kabat); DAR 1.8) VH: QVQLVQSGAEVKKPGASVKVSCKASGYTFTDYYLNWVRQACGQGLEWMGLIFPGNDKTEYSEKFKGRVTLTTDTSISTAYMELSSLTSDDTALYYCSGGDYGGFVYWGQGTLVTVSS VL: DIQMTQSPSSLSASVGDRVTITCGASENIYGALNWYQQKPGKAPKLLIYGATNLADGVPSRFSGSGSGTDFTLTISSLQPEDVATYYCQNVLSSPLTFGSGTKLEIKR ) = 10

Reported Efficacy (%), in vitro cytotoxicity, NCI-H596, -HGF ( ADC1a (antibody, human IgG1, kappa, V domains shown, vc-seco-DUBA linker-drug on the engineered cysteine at HC position 41 (Kabat); DAR 1.7) VH: QVQLVQSGAEVKKPGASVKVSCKASGYIFTDYFMNWVRQACGQGLEWMGRVNPKNGDITYNQKFRGRVSLTKDTSINTAYMELSGLTSDDTAIYYCAYDGYYDGMDFWGQGTSVTVSS VL: ELVMTQSPSSLSASVGDRVTITCRANSSVSSNFLHWYQQKPGKAPKLLISSTSNLAFGVPSRFSGTGSGTDFSLTISSLQPEDFAIYYCHQYSGHPFTFGQGTKLEIKR ) = 14

Reported Efficacy (%), in vitro cytotoxicity, NCI-H596, -HGF ( ADC3a (antibody, human IgG1, kappa, V domains shown, vc-seco-DUBA linker-drug on the engineered cysteine at HC position 41 (Kabat); DAR 1.9) VH: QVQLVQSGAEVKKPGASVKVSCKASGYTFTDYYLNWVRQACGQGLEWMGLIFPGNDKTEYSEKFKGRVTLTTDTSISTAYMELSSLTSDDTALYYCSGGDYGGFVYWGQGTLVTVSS VL: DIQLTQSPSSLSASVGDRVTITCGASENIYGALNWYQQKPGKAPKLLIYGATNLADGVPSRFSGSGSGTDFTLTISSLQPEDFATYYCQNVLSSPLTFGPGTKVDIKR ) = 3

Reported Efficacy (%), in vitro cytotoxicity, NCI-H596, -HGF ( ADC3b (antibody, human IgG1, kappa, V domains shown, vc-seco-DUBA linker-drug on the engineered cysteine at HC position 41 (Kabat); DAR 1.9, Antibody-drug conjugate of mAb3b; also called mAb3b-vc-seco-DUBA) VH: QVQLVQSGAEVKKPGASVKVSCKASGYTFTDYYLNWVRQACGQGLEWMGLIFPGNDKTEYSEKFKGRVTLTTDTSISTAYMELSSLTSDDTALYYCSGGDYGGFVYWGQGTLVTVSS VL: DIQMTQSPSSLSASVGDRVTISCGASENIYGALNWYQQQPGKAPKVLIFGATNLADGVPSRFSGSGSGTDFTLTISSLQPEDFATYYCQNVLSSPLTFGQGTKLEIKR ) = 10

Reported Efficacy (%), in vitro cytotoxicity, NCI-H596, -HGF ( ADC2c (antibody, human IgG1, kappa, V domains shown, vc-seco-DUBA linker-drug on the engineered cysteine at HC position 41 (Kabat); DAR 1.7) VH: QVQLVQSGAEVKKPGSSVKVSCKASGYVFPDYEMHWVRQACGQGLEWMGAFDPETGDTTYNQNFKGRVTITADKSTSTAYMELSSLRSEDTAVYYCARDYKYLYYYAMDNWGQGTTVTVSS VL: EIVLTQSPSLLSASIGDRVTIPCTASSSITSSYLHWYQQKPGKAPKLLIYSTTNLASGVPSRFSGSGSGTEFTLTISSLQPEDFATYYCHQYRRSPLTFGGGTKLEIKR ) = 3

Reported Efficacy (%), in vitro cytotoxicity, NCI-H596, -HGF ( ADC2b (antibody, human IgG1, kappa, V domains shown, vc-seco-DUBA linker-drug on the engineered cysteine at HC position 41 (Kabat); DAR 1.7) VH: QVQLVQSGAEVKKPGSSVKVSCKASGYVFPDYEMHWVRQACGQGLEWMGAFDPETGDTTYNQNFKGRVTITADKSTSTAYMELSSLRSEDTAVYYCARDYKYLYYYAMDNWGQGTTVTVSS VL: DIQMTQSPSSLSASVGDRVTITCTASSSITSSYLHWYQQKPGKAPKLLIYSTTNLASGVPSRFSGSGSGTDFTLTISSLQPEDFATYYCHQYRRSPLTFGGGTKLEIKR ) = 10

Reported Efficacy (%), in vitro cytotoxicity, NCI-H596, -HGF ( ADC2a (antibody, human IgG1, kappa, V domains shown, vc-seco-DUBA linker-drug on the engineered cysteine at HC position 41 (Kabat); DAR 1.7) VH: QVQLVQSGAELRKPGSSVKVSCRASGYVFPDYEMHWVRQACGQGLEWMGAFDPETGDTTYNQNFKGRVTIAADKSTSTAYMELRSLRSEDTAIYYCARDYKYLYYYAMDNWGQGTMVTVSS VL: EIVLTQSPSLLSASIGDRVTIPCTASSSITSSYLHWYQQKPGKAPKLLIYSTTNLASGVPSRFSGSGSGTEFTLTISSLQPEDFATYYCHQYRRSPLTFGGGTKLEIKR ) = 8
